Answer each item with its documented pIC50.
- system_name: UniProt:A0A173FEI8
- Sequence (A0A173FEI8 1-547): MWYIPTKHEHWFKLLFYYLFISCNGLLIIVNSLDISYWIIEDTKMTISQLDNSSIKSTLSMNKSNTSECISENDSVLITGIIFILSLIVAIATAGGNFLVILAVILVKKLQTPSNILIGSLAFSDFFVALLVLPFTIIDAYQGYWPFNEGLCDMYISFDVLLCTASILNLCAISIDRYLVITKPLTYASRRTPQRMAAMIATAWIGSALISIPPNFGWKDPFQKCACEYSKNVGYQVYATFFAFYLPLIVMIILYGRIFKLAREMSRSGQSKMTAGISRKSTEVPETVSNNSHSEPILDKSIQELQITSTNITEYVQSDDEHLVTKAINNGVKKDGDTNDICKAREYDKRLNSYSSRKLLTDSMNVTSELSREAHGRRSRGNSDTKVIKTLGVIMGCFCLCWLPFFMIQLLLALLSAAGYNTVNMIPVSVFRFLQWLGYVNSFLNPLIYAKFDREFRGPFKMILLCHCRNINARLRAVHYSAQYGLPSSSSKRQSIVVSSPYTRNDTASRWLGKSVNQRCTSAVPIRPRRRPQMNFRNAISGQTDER
- experiment_summary: cAMP biosensor
- Assay type: cell-based
- measurement_context: read-out: IC50 Sm.5HTRL; inhibition of 5-HT (0.8 μM) evoked cAMP generation; HEK293 cells co-transfected with 22-F cAMP biosensor; IBMX 200 μM
Numbers only, as −log10 of the molar value.

Previously resolved entries follow.
| compound | pIC50 |
| --- | --- |
| COc1ccc2c(c1O)-c1c3c(cc4c1[C@H](C2)N(C)CC4)OCO3 [Bulbocapnine, (+)-Bulbocapnine] | 4.82 |
| COc1cc2c(cc1O)C[C@H]1c3c(cc(O)c(OC)c3-2)CCN1C [Boldine, (+)boldine] | 5.96 |
| CN1CCc2cccc3c2[C@H]1Cc1ccc(O)c(O)c1-3 [Apomorphine, R-(−)-apomorphine, reference compound] | 4.82 |

Okay, next one:
[Q] Could you share what pIC50 was measured for COc1cc2c3c(c1OC)-c1ccccc1C[C@H]3N(C)CC2 [Nuciferine, (−)nuciferine] , tested on UniProt:A0A173FEI8?
[A] 6.62
